measured_target: UniProt:Q5L478
Sequence (whole entry): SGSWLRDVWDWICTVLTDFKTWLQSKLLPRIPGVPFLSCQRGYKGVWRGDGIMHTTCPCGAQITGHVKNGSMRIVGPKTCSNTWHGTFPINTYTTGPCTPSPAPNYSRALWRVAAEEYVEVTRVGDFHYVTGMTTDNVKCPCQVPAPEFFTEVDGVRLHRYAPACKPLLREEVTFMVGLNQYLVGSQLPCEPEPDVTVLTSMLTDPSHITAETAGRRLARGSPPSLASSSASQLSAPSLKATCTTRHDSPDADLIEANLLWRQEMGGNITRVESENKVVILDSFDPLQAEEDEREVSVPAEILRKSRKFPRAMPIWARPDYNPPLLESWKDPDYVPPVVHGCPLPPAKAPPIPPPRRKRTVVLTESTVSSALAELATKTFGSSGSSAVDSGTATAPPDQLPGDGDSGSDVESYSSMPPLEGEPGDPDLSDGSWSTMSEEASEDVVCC
procedure_summary: Inhibition of HCV GT3a NS5A assessed as suppression of replicon RNA level by real-time PCR analysis
cond: Hepatitis C virus subtype 3a
property: log10(EC90) (log10 of the value in nM)
Each number you see is log10 of EC90, and the unit inside the log is nM.

INSERT INTO measurements (molecule, value) VALUES
  ('COC(=O)N[C@H](C(=O)N1CCC[C@H]1c1ncc(-c2ccc3c(c2)c(F)c2n3C(c3ccccc3)Oc3cc(-c4cnc([C@@H]5C[C@@H](F)CN5C(=O)[C@@H](NC(=O)OC)C(C)C)[nH]4)ccc3-2)[nH]1)C(C)C (some centres undefined)', -0.70),
  ('COC(=O)N[C@H](C(=O)N1CCC[C@H]1c1ncc(-c2ccc3c(c2)O[C@@H](c2ccccc2)n2c-3c(F)c3cc(-c4cnc([C@@H]5CCCN5C(=O)[C@@H](NC(=O)OC)C(C)C)[nH]4)ccc32)[nH]1)C(C)C', -0.52),
  ('COC(=O)N[C@H](C(=O)N1C[C@H](F)C[C@H]1c1ncc(-c2ccc3c(c2)OC(c2ccccc2)n2c-3c(F)c3cc(-c4cnc([C@@H]5C[C@@H](F)CN5C(=O)[C@@H](NC(=O)OC)C(C)C)[nH]4)ccc32)[nH]1)C(C)C (mixture of isomers)', 0.90);

Record summary for COC(=O)N[C@H](C(=O)N1CCC[C@H]1c1ncc(-c2ccc3c(c2)OC(c2cccc(OC)c2)n2c-3cc3cc(-c4cnc([C@@H]5CCCN5C(=O)[C@@H](NC(=O)OC)C(C)C)[nH]4)ccc32)[nH]1)C(C)C (some centres undefined) : reported log10(EC90) = -1.00

Record summary for COC(=O)N[C@H](C(=O)N1CCC[C@H]1c1ncc(-c2ccc3c(c2)OC(c2ccccc2)n2c-3c(F)c3cc(-c4cnc([C@@H]5C[C@@H](F)CN5C(=O)[C@@H](NC(=O)OC)C(C)C)[nH]4)ccc32)[nH]1)C(C)C (mixture of isomers) : reported log10(EC90) = 0.30

Record summary for COC(=O)N[C@H](C(=O)N1CCC[C@H]1c1ncc(-c2ccc3c(c2)OCn2c-3cc3cc(-c4cnc([C@@H]5CCCN5C(=O)[C@@H](NC(=O)OC)C(C)C)[nH]4)c(F)cc32)[nH]1)C(C)C : reported log10(EC90) = 0.70

Record summary for COC(=O)N[C@H](C(=O)N1CCC[C@H]1c1ncc(-c2cc(F)c3c(c2)OC(c2cccc(OC)c2)n2c-3cc3cc(-c4cnc([C@@H]5CCCN5C(=O)[C@@H](NC(=O)OC)C(C)C)[nH]4)ccc32)[nH]1)C(C)C (some centres undefined) : reported log10(EC90) = -1.15

Record summary for COC(=O)N[C@H](C(=O)N1CCC[C@H]1c1ncc(-c2cc(F)c3c(c2)OC(c2cc(Cl)cc(OC)c2)n2c-3cc3cc(-c4cnc([C@@H]5CCCN5C(=O)[C@@H](NC(=O)OC)C(C)C)[nH]4)ccc32)[nH]1)C(C)C (some centres undefined) : reported log10(EC90) = -1.00

---

Below, each entry is listed alongside its reported EC90.
System: Nonstructural protein 5A (Hepatitis C virus), Q5L478 [UNDEFINED MUTATION]
procedure_summary: Inhibition of HCV GT1a NS5A L31V mutant assessed as suppression of replicon RNA level by real-time PCR analysis
cond: Hepatitis C virus subtype 1a
State the answer as a number, implicitly in nM.

INSERT INTO measurements (molecule, property, value) VALUES
  ('COC(=O)N[C@H](C(=O)N1CCC[C@H]1c1ncc(-c2ccc3c(c2)OCn2c-3c(-c3ccccc3)c3cc(-c4cnc([C@@H]5CCCN5C(=O)[C@@H](NC(=O)OC)C(C)C)[nH]4)ccc32)[nH]1)C(C)C', 'EC90', 4);

Record summary for COC(=O)N[C@H](C(=O)N1CCC[C@H]1c1ncc(-c2cc(F)c3c(c2)O[C@@H](c2ccccc2)n2c-3c(Cl)c3cc(-c4cnc([C@@H]5CCCN5C(=O)[C@@H](NC(=O)OC)C(C)C)[nH]4)ccc32)[nH]1)C(C)C : reported EC90 = 0.4

Record summary for COC(=O)N[C@H](C(=O)N1C[C@H](F)C[C@H]1c1ncc(-c2ccc3c(c2)OC(c2ccccc2)n2c-3c(F)c3cc(-c4cnc([C@@H]5C[C@@H](F)CN5C(=O)[C@@H](NC(=O)OC)C(C)C)[nH]4)ccc32)[nH]1)C(C)C (mixture of isomers) : reported EC90 = 7

Record summary for COC(=O)N[C@H](C(=O)N1CCC[C@H]1c1ncc(-c2ccc3c(c2)OCn2c-3c(C3CC3)c3cc(-c4cnc([C@@H]5CCCN5C(=O)[C@@H](NC(=O)OC)C(C)C)[nH]4)ccc32)[nH]1)C(C)C : reported EC90 = 8

---

procedure_summary: AUC in Sprague-Dawley rat at 10 mg/kg, po
Type: ADME, organism-based
cond: in vivo
property: AUC (µM·h)
State the answer as a number, implicitly in µM·h.

INSERT INTO assay_data (compound, property, value) VALUES
  ('COC(=O)N[C@H](C(=O)N1CCC[C@H]1c1ncc(-c2cc(F)c3c(c2)OC(c2cccc(OC)c2)n2c-3cc3cc(-c4cnc([C@@H]5CCCN5C(=O)[C@@H](NC(=O)OC)C(C)C)[nH]4)ccc32)[nH]1)C(C)C (some centres not stated)', 'AUC', 2.1);

Record summary for COC(=O)N[C@H](C(=O)N1CCC[C@H]1c1ncc(-c2cc(F)c3c(c2)OC(c2cc(Cl)cc(OC)c2)n2c-3cc3cc(-c4cnc([C@@H]5CCCN5C(=O)[C@@H](NC(=O)OC)C(C)C)[nH]4)ccc32)[nH]1)C(C)C (some centres not stated) : reported AUC = 0.75

---

procedure_summary: Half life in Sprague-Dawley rat at 5 mg/kg, po or 2 mg/kg, iv
Type: ADME, organism-based
cond: in vivo
Below, each entry is listed alongside its reported half-life.
State the answer as a number, implicitly in h.

INSERT INTO assay_data (compound, property, value_unit, value) VALUES
  ('COC(=O)N[C@H](C(=O)N1CCC[C@H]1c1ncc(-c2ccc3c(c2)OC(c2cccc(OC)c2)n2c-3cc3cc(-c4cnc([C@@H]5CCCN5C(=O)[C@@H](NC(=O)OC)C(C)C)[nH]4)ccc32)[nH]1)C(C)C (some centres not stated)', 'half-life', 'h', 4.3);

Record summary for COC(=O)N[C@H](C(=O)N1CCC[C@H]1c1ncc(-c2cc(F)c3c(c2)O[C@@H](c2ccccc2)n2c-3cc3cc(-c4cnc([C@@H]5CCCN5C(=O)[C@@H](NC(=O)OC)C(C)C)[nH]4)ccc32)[nH]1)C(C)C : reported half-life = 3.6

---

Below, each entry is listed alongside its reported EC90.
Tested on: Nonstructural protein 5A (Hepatitis C virus), Q5L478 [Y93H]
Sequence (Q5L478 entry or part of it Y93H): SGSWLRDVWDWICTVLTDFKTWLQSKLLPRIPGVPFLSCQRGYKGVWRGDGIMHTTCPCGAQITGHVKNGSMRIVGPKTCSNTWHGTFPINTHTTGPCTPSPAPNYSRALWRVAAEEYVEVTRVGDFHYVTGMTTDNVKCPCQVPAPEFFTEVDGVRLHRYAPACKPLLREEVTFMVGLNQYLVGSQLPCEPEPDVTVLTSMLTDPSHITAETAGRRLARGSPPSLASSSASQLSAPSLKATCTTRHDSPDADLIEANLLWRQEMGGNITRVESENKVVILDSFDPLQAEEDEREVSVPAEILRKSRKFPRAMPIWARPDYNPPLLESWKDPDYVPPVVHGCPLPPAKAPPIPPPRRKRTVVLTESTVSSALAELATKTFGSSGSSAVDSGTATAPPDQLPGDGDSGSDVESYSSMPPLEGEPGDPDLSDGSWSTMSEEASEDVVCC
procedure_summary: Inhibition of HCV GT1a NS5A Y93H mutant assessed as suppression of replicon RNA level by real-time PCR analysis
cond: Hepatitis C virus subtype 1a
State the answer as a number, implicitly in µM.

Look over these answered cases.
INSERT INTO results (compound, value) VALUES
  ('CCOc1cccc(C2Oc3cc(-c4cnc([C@@H]5CCCN5C(=O)[C@@H](NC(=O)OC)C(C)C)[nH]4)cc(F)c3-c3cc4cc(-c5cnc([C@@H]6CCCN6C(=O)[C@@H](NC(=O)OC)C(C)C)[nH]5)ccc4n32)c1 (some centres undefined)', 0.002),
  ('COC(=O)N[C@H](C(=O)N1CCC[C@H]1c1ncc(-c2ccc3c(c2)cc2n3C(c3cccc(OC(F)F)c3)Oc3cc(-c4cnc([C@@H]5C[C@@H](F)CN5C(=O)[C@@H](NC(=O)OC)C(C)C)[nH]4)cc(F)c3-2)[nH]1)C(C)C (some centres undefined)', 0.0003),
  ('COC(=O)N[C@H](C(=O)N1CCC[C@H]1c1ncc(-c2cc(F)c3c(c2)OC(c2cc(Cl)cc(OC)c2)n2c-3cc3cc(-c4cnc([C@@H]5CCCN5C(=O)[C@@H](NC(=O)OC)C(C)C)[nH]4)ccc32)[nH]1)C(C)C (some centres undefined)', 0.003),
  ('COC(=O)N[C@H](C(=O)N1C[C@H](F)C[C@H]1c1ncc(-c2cc(F)c3c(c2)OC(c2cccc(OC(F)(F)F)c2)n2c-3cc3cc(-c4cnc([C@@H]5C[C@@H](F)CN5C(=O)[C@@H](NC(=O)OC)C(C)C)[nH]4)ccc32)[nH]1)C(C)C (some centres undefined)', 0.0002),
  ('COC(=O)N[C@H](C(=O)N1CCC[C@H]1c1ncc(-c2ccc3c(c2)OC(c2cccc(OC(C)C)c2)n2c-3cc3cc(-c4cnc([C@@H]5CCCN5C(=O)[C@@H](NC(=O)OC)C(C)C)[nH]4)ccc32)[nH]1)C(C)C (some centres undefined)', 0.034);

Record summary for CCOc1cccc(C2Oc3cc(-c4cnc([C@@H]5CCCN5C(=O)[C@@H](NC(=O)OC)C(C)C)[nH]4)ccc3-c3cc4cc(-c5cnc([C@@H]6CCCN6C(=O)[C@@H](NC(=O)OC)C(C)C)[nH]5)ccc4n32)c1 (some centres undefined) : reported EC90 = 0.016

Record summary for COC(=O)N[C@H](C(=O)N1CCC[C@H]1c1ncc(-c2cc3c(c(-c4ccccc4)c2)-c2cc4cc(-c5cnc([C@@H]6CCCN6C(=O)[C@@H](NC(=O)OC)C(C)C)[nH]5)ccc4n2CO3)[nH]1)C(C)C : reported EC90 = 0.25

Record summary for COC(=O)N[C@H](C(=O)N1CCC[C@H]1c1ncc(-c2ccc3c(c2)cc2n3[C@H](c3ccccc3)Oc3cc(-c4cnc([C@@H]5CCCN5C(=O)[C@@H](NC(=O)OC)C(C)C)[nH]4)c(F)cc3-2)[nH]1)C(C)C : reported EC90 = 0.062

Record summary for COC(=O)N[C@H](C(=O)N1CCC[C@H]1c1ncc(-c2ccc3c(c2)OC(c2ccc(OC)cc2)n2c-3cc3cc(-c4cnc([C@@H]5CCCN5C(=O)[C@@H](NC(=O)OC)C(C)C)[nH]4)ccc32)[nH]1)C(C)C (some centres undefined) : reported EC90 = 0.082
